# credit: patent US5134140A

Assayed system: dopamine D2 receptor (Rattus norvegicus)
Construct: from tissue; host or cells: homogenized limbic brain tissue
Sequence (P61169 whole entry): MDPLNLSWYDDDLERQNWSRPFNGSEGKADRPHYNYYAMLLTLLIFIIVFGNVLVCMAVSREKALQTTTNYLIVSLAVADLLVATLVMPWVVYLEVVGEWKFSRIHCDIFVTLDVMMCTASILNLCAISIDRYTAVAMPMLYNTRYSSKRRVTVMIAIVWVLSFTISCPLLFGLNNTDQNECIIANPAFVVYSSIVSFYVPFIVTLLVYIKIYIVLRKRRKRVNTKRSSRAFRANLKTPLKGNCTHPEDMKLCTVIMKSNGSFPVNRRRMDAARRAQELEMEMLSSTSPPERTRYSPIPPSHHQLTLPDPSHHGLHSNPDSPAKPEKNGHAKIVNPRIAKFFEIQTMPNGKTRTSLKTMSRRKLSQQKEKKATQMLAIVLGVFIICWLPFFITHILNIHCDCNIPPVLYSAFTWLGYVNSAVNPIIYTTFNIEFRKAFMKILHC
Test protocol: D-2 binding, 3H-spiroperidol, homogenized limbic brain tissue
Measured attribute: inhibition at 1 µM
Give the figure together with its unit, number first.

COc1cccc2cc(CNCCN3C(=O)CC4(CCCC4)CC3=O)oc12 [Example 3]: 72%
COc1cccc2cc(CNCCNC(=O)c3ccc(F)cc3)oc12 [Example 6]: 70%
COc1cccc2cc(CNCCNC(=O)C34CCC(CC3=O)C4(C)C)oc12 (single isomer, unassigned) [Example 5]: 4%

Query :: Given the compound COc1cccc2cc(CNCCNC(=O)C34CC5CC(CC(C5)C3)C4)oc12 [Example 2] , what is its reported inhibition at 1 µM?
Result :: 29%

Query :: Now give it for COc1cccc2cc(CNCCN3C(=O)C4CC(C3=O)C3C4C4C5CC6C4C6C53)oc12 (centres unmarked) [Example 4] too.
Result :: 49%
